I'd appreciate it if you could supply growth values for the items below.
Test system: A549/ATCC NSCLC
Test: NCI-60 one-dose screen, 48 h (100 = growth as untreated, 0 = no growth, -100 = all killed)
Settings: 10 µM unless noted
The panel holds about 83,000 compounds, 20% with a hit somewhere; the sample as a whole holds those more often. Active and inactive are the calls of the source. Rule for the calls: active = growth percent below 10; inactive = the rest.

Give recorded growth with A549/ATCC NSCLC for the following compound: CCn1cc2c(cc1=O)-c1nc3ccccc3c3ccnc(c13)C2=O
29% (inactive)

Give recorded growth with A549/ATCC NSCLC for the following compound: COc1ccc(C/C(C)=C(\c2ccc(OCCN3CCCCCC3)cc2)c2ccc(OC(=O)C3CCCCC3)cc2)cc1
65.2% (inactive)

Give recorded growth with A549/ATCC NSCLC for the following compound: COc1ccc(C(=O)c2sc3nc4c(cc3c2N)CCCC4)cc1OC
41.4% (inactive)

Give recorded growth with A549/ATCC NSCLC for the following compound: COc1cccc2c1C(=O)c1c(O)c3c(c(O)c1C2=O)C[C@@](O)(/C(C)=N/NC(=O)c1ccc(Cl)cc1)C[C@@H]3OC1CC(N)C(O)C(C)O1 (stereo partly specified)
-32.8% (active)

Give recorded growth with A549/ATCC NSCLC for the following compound: COc1ccc(/C=C/C(=O)c2ccc(NC(=O)c3cc4cc5ccccc5nc4s3)cc2)cc1OC
105% (inactive)

Give recorded growth with A549/ATCC NSCLC for the following compound: CC(C)[C@@H]1CC[C@]2(C(=O)NCCCCN=C(N)N)CC[C@]3(C)[C@H](CC[C@@H]4[C@@]5(C)CCC(=O)C(C)(C)[C@@H]5CC[C@]43C)[C@@H]12
80.9% (inactive)

Give recorded growth with A549/ATCC NSCLC for the following compound: CSc1nc(NCCCNc2ccnc3cc(Cl)ccc23)cc(-c2ccccc2)n1
74.3% (inactive)

Give recorded growth with A549/ATCC NSCLC for the following compound: Nc1cc(-c2nc3sccn3c2-c2ccnc(NCCCNS(=O)(=O)c3ccc(F)cc3)n2)ccc1F
41.4% (inactive)

Give recorded growth with A549/ATCC NSCLC for the following compound: COc1cccc(-c2cn3c(ccc4ccccc43)n2)c1
55% (inactive)

Give recorded growth with A549/ATCC NSCLC for the following compound: CCOC(=O)/C=C/c1ccc(C(=O)OCC)[nH]1
40.3% (inactive)

Give recorded growth with A549/ATCC NSCLC for the following compound: CCOC(=O)C(C#N)C1CCCCC1 (stereo unspecified)
105% (inactive)

Give recorded growth with A549/ATCC NSCLC for the following compound: O=C(/C=C/c1ccc(Cl)cc1)c1ccc(O)c(CN2CCN(c3cc4c(cc3F)c(=O)c(C(=O)O)cn4C3CC3)CC2)c1
50% (inactive)

Give recorded growth with A549/ATCC NSCLC for the following compound: O=C(/C=C/c1ccc(B(O)O)cc1)/C=C/c1ccc(B(O)O)cc1
41.4% (inactive)

Give recorded growth with A549/ATCC NSCLC for the following compound: CCCCN(CCCC)CCC(C)(O)c1cc2ccccc2c2ccccc12 (stereo unspecified)
83.5% (inactive)

Give recorded growth with A549/ATCC NSCLC for the following compound: Cc1cc(Nc2nc(N3CCN(C)CC3)nc3ccccc23)n[nH]1
65.2% (inactive)

Give recorded growth with A549/ATCC NSCLC for the following compound: c1ccc(-c2nc(N3CCOCC3)c3c4c(sc3n2)CCCCC4)nc1
51% (inactive)

Give recorded growth with A549/ATCC NSCLC for the following compound: CNC(=S)N/N=C/CSC/C=N/NC(=S)NC
62.8% (inactive)

Give recorded growth with A549/ATCC NSCLC for the following compound: OC(c1cc(-c2ccccc2)nc2ccc(Cl)cc12)C1CCCCN1 (stereo unspecified)
21.7% (inactive)

Give recorded growth with A549/ATCC NSCLC for the following compound: CCC(c1ccc(O)cc1)C(CC)c1ccc(O)c(F)c1 (stereo unspecified)
89% (inactive)

Give recorded growth with A549/ATCC NSCLC for the following compound: O=C(NCc1cccc(C(F)(F)F)c1)[C@H](CCC(=O)N1CCN(C2CCCCC2)CC1)N1C(=O)[C@@H](N2C(=O)OC[C@@H]2c2ccccc2)[C@H]1/C(Cl)=C/c1ccccc1
37.7% (inactive)

Give recorded growth with A549/ATCC NSCLC for the following compound: COc1ccc2nc3cc(Cl)ccc3c(N3CCN(c4nccc(Nc5ccc(Cl)cc5)n4)CC3)c2c1
76.4% (inactive)

Give recorded growth with A549/ATCC NSCLC for the following compound: Cc1ccc2c(c1)C(=O)/C(=C/c1ccc(OCC(=O)c3ccccc3)cc1)O2
81.6% (inactive)

Give recorded growth with A549/ATCC NSCLC for the following compound: NCCN1CCN(c2nccc(-c3ccc4ccccc4c3)n2)CC1
52.3% (inactive)

Give recorded growth with A549/ATCC NSCLC for the following compound: CCNS(=O)(=O)c1ncnc2nc[nH]c12
119% (inactive)

Give recorded growth with A549/ATCC NSCLC for the following compound: CC(C)n1cc2c(N)ncnc2n1
102% (inactive)

Give recorded growth with A549/ATCC NSCLC for the following compound: O=C1Nc2ccc(Br)cc2C12CC(c1ccccc1)=NN2 (stereo unspecified)
31.6% (inactive)

Give recorded growth with A549/ATCC NSCLC for the following compound: O=S(=O)(NCCCNc1cc(-c2cn(-c3ccccc3)nc2-c2cccc(O)c2)ccn1)c1ccccc1
35.8% (inactive)

Give recorded growth with A549/ATCC NSCLC for the following compound: NCc1cn2cc(Cl)sc2n1
92.9% (inactive)

Give recorded growth with A549/ATCC NSCLC for the following compound: COc1cc2c(cc1O)CCc1cc(O)cc(OC)c1-2
87.6% (inactive)

Give recorded growth with A549/ATCC NSCLC for the following compound: Oc1c(Cl)cc(Cl)cc1CNc1nccnn1
102% (inactive)

Give recorded growth with A549/ATCC NSCLC for the following compound: COc1cccc(/C=C2/C(=O)N(Cc3ccco3)SC2=S)c1OC
100% (inactive)

Give recorded growth with A549/ATCC NSCLC for the following compound: CCCCCCCCCCCCCCCCCCNC(=O)[C@H]1CSC(c2ccc(OC)c(F)c2)N1 (stereo partly specified)
20.9% (inactive)

Give recorded growth with A549/ATCC NSCLC for the following compound: CC/C(=C(\c1ccccc1)c1ccc(OCCNC)cc1)c1ccccc1
-39.2% (active)

Give recorded growth with A549/ATCC NSCLC for the following compound: C=C1C(=O)O[C@H]2[C@H]1CC/C(Cn1cc(Cn3ccc4ccccc43)nn1)=C\CC[C@@]1(C)O[C@@H]21
62% (inactive)

Give recorded growth with A549/ATCC NSCLC for the following compound: COc1ccc(CN2C(=O)/C(=C\c3cc(OC)c(OC)c(OC)c3)c3cc(OC)ccc32)cc1
3.05% (active)

Give recorded growth with A549/ATCC NSCLC for the following compound: COc1ccc2nc3cc(Cl)ccc3c(N3CCN(c4nccc(NCc5ccccc5)n4)CC3)c2c1
78.3% (inactive)

====

Test system: UACC-257 melanoma
Experiment: NCI-60 one-dose screen, 48 h (100 = growth as untreated, 0 = no growth, -100 = all killed)
Conditions: 10 µM unless noted
Compounds without any hit were thinned out: in the full panel of roughly 83,000, 20% have a hit.
Readout Label: growth (%)
Give the quantity in %, number only.

Give recorded growth with UACC-257 melanoma for the following compound: CS(=O)CCCCCN=C=S (stereo unspecified)
-6.89

Give recorded growth with UACC-257 melanoma for the following compound: COc1ccc(-c2nn(-c3ccccc3)cc2/C=C/C(=O)OCc2cn(-c3ccc(F)c(Cl)c3)nn2)cc1
92.9

Give recorded growth with UACC-257 melanoma for the following compound: COc1ccc(-c2cnoc2-c2cc(OC)c3c(c2)OCCO3)cc1
69.7

Give recorded growth with UACC-257 melanoma for the following compound: CN1CCN(c2ccc3nc(-c4ccc5nc(-c6ccc(OCCC(C)(C)C)cc6)[nH]c5c4)[nH]c3c2)CC1
110

Give recorded growth with UACC-257 melanoma for the following compound: COc1cc(-c2cc(-c3nc4ccc(Cl)cc4[nH]3)[nH]n2)cc(OC)c1OC
62.9

Give recorded growth with UACC-257 melanoma for the following compound: CCOC(=S)SCc1ccc(Cl)cc1
100

Give recorded growth with UACC-257 melanoma for the following compound: COc1cc2c(=O)n(CC3CCCCC3)c3c4cc[nH]c4ncc3c2cc1OC
84.9

Give recorded growth with UACC-257 melanoma for the following compound: COc1cc(-c2c3c(nc4c2c(C)nn4-c2ccccc2)-c2ccccc2C(=O)C3=O)cc(OC)c1OC
64.1

Give recorded growth with UACC-257 melanoma for the following compound: Cc1nc2nc(N)nc(N)c2nc1C
96.2

Give recorded growth with UACC-257 melanoma for the following compound: CCCCCn1cnc2c(=S)nc[nH]c21
131

Give recorded growth with UACC-257 melanoma for the following compound: COc1cc(OC)c(/C=C/c2cc[n+](C)c3ccccc23)c(OC)c1
-24.7

Give recorded growth with UACC-257 melanoma for the following compound: O=C1CCc2c(sc3[nH]c(=S)n(Cc4ccccc4)c(=O)c23)C1
29.1

Give recorded growth with UACC-257 melanoma for the following compound: NS(=O)(=O)c1ccc(Nc2nc3n[nH]c(Nc4ccccc4)c3c(=O)[nH]2)cc1
97

Give recorded growth with UACC-257 melanoma for the following compound: CN(C)c1ccc(/C=C(\C#N)c2nc3ccccc3s2)cc1
93.5

Give recorded growth with UACC-257 melanoma for the following compound: CCc1ccc(C(c2ccc(CC)cc2)C(Cl)(Cl)CCl)cc1
110

Give recorded growth with UACC-257 melanoma for the following compound: CN(C)CCOc1ccc(-c2nc3ccc(-c4nc5ccc(N6CCN(C)CC6)cc5[nH]4)cc3[nH]2)cc1
41.2

Where do these numbers come from? They come from PubChem BioAssay (NCI).
